Numbers sourced from patent US20080004272A1.

Assayed System: ASIC1a (Homo sapiens, UniProt P78348)
Sequence (P78348 1-528): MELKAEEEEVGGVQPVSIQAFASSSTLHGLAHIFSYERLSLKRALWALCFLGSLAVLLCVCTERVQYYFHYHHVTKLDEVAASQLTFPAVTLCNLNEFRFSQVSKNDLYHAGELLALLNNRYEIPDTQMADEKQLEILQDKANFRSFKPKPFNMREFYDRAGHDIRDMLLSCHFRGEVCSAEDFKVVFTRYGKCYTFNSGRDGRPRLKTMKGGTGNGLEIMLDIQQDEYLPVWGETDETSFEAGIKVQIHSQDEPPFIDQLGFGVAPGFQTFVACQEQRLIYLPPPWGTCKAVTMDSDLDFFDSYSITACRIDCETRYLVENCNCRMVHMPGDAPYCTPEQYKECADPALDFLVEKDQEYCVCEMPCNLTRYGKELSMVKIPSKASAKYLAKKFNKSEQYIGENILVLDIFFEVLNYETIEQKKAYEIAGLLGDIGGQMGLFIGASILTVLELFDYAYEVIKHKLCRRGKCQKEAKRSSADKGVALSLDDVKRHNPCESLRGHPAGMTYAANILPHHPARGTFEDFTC
Test Summary: Two-electrode voltage clamp in Xenopus laevis oocytes (Xo), acid-induced currents
Type: cell-based
Design: expressed in transfected cells; host or cells: Xenopus laevis oocytes (nuclear microinjection of expression vector such as pcDNA3)
Experimental Setup: 50 μM, Xenopus oocytes; read-out: % inh. at 50 μM (Xo)
Endpoint: inhibition at 50 µM

Compound | Result
CN1CCc2c(-c3ccccc3)cc3c(c2C1)NC(=O)/C3=N/N [Compound 102] | > 50%
COC(=O)c1ccc(-c2ccccc2)c2c1CN(C(=O)OC(C)(C)C)CC2 [Compound 177] | < 25%
CCOC(=O)C(=O)Nc1ccc(-c2ccccc2)c2c1CN(C(=O)OCC)CC2 [Compound 125] | < 25%
CN1CCc2c(-c3ccccc3)cc(C#N)c(N)c2C1 [Compound 203] | > 70%
CN1CCc2c(-c3ccccc3)ccc(NCCC(=O)O)c2C1 [Compound 151] | < 25%
CN1CCc2c(-c3ccccc3)cc3c(=O)[nH]c(=O)[nH]c3c2C1 [Compound 98] | 20 to 40%
CN(C)/C=C1/C(=O)Nc2c1cc(-c1ccccc1)c1c2CN(C)CC1 [Compound 95] | < 25%
COC(=O)CNc1ccc(-c2ccccc2)c2c1CN(C)CC2 [Compound 205] | 20 to 40%
CNN=C1C(=O)Nc2c1cc(-c1ccccc1)c1c2CN(C)CC1 [Compound 108] | < 25%
CN1CCc2c(-c3ccccc3)cc3cc[nH]c3c2C1 [Compound 78] | < 25%
COc1ccc(NC(=O)NCc2ccc(-c3ccccc3)c3c2CN(C)CC3)cc1 [Compound 117] | < 25%
CN1CCc2c(-c3ccccc3)ccc(Br)c2C1 [Compound 172] | < 25%
CC(C)(C)OC(=O)N1CCc2c(-c3ccccc3)ccc(NCC(=O)Oc3ccccc3)c2C1 [Compound 170] | < 25%
COC(=O)c1cc(-c2ccccc2)c2c(c1C(=O)OC)CN(C(=O)OC(C)(C)C)CC2 [Compound 179] | < 25%
CCOC(=O)N1CCc2c(-c3ccccc3)ccc(NCC(=O)O)c2C1 [Compound 138] | < 25%
CN1CCc2c(-c3ccccc3)ccc(CN)c2C1 [Compound 115] | < 25%
CCOC(=O)N1CCc2c(-c3ccccc3)ccc(N)c2C1 [Compound 159] | 20 to 40%
CCOC(=O)N1CCc2c(Br)ccc(NCC(=O)OC)c2C1 [Compound 158] | < 25%
CCOC(=O)CN(Cc1ccccc1)Cc1ccc(-c2ccccc2)c2c1CN(C(=O)OCC)CC2 [Compound 122] | 20 to 40%

====

Assayed System: ASIC1a (Homo sapiens)
Test Summary: Calcium imaging of MES-induced calcium response (FLIPR)
Assay type: cell-based
Parameters: host or cells: HEK293
Experimental Setup: ASIC1a expressing HEK293 cells, MES-induced calcium response; read-out: IC50 (FLIPR)
pIC50: −log10 of the molar value.
Endpoint: pIC50

Compound | Result
CN1CCc2c(-c3ccc(F)cc3F)cc3c(c2C1)NC(=O)/C3=N/O [Compound 50] | < 4.15
CN1CCc2c(-c3cccc(N)c3)cc3c(c2C1)NC(=O)/C3=N/O [Compound 48] | < 4.15
COc1ccccc1-c1cc2c(c3c1CCN(C)C3)NC(=O)/C2=N\O [Compound 34] | > 5.00
CC(C)(C)OC(=O)N1CCc2c(-c3ccccc3)ccc(C(N)=O)c2C1 [Compound 181] | < 4.15
COc1c2c(c(C(C)=O)c3c1OCO3)CCN(C)C2 [Compound 33] | < 4.15
COC(=O)c1cc(-c2ccccc2)c2c(c1C(=O)OC)CN(C(=O)OC(C)(C)C)CC2 [Compound 179] | < 4.15
CN1CCc2c(-c3cccc(F)c3)cc3c(c2C1)NC(=O)/C3=N\O [Compound 36] | > 5.00
CN1CCc2c(-c3ccncc3)cc3c(c2C1)NC(=O)/C3=N/O [Compound 55] | < 4.15
Nc1ccc(-c2ccccc2)c2ccncc12 [Compound 136] | < 4.15
CN1CCc2c(-c3ccccc3)cc3c(c2C1)NCC31OCCO1 [Compound 77] | < 4.15
CN1CCc2c(-c3cc(F)ccc3F)cc3c(c2C1)NC(=O)/C3=N/O [Compound 39] | > 5.00
CN1CCc2c(-c3ccccc3)cc3c(c2C1)NC(=O)/C3=C/c1ccccc1C(=O)O [Compound 82] | < 4.15
CN1CCc2c(-c3cccc(OC(F)(F)F)c3)cc3c(c2C1)NC(=O)/C3=N/O [Compound 51] | < 4.15
Cc1cc(F)ccc1-c1cc2c(c3c1CCN(C)C3)NC(=O)/C2=N/O [Compound 52] | < 4.15
CN1CCc2c(-c3cc(F)cc(F)c3)cc3c(c2C1)NC(=O)/C3=N\O [Compound 17] | > 5.00
CC(=O)c1ccccc1-c1cc2c(c3c1CCN(C)C3)NC(=O)/C2=N/O [Compound 32] | < 4.15
CN1CCc2c(-c3ccccc3)cc3c(c2C1)NC(=O)/C3=N/N [Compound 102] | 4.40 to 4.70
CN(C)/C=C1/C(=O)Nc2c1cc(-c1ccccc1)c1c2CN(C)CC1 [Compound 95] | < 4.15
CCOC(=O)N1CCc2c(Br)ccc([N+](=O)[O-])c2C1 [Compound 157] | < 4.15

====

Assayed System: ASIC1a (Homo sapiens)
Test Summary: Calcium imaging of MES-induced calcium response (FLIPR)
Format: cell-based
Set-up: host or cells: HEK293
Experimental Setup: ASIC1a expressing HEK293 cells, MES-induced calcium response; read-out: IC50 (FLIPR)
Experimental: […] Confluency of cells should be 80-90% on day of plating. Cells are rinsed with 10 ml of PBS and cells are re-suspended by addition of culture medium and trituration with a 25 ml pipette. […] Following the second wash, 100 μl modified Assay Buffer is added to each well and the fluorescence is measured in FLIPR™ or FlexStation™ (Molecular Devices, USA), or any other suitable equipment known to the skilled in the art. […]
pIC50: −log10 of the molar value.
pIC50: recorded values
Endpoint: pIC50

Smiles Input | Endpoint | Result
CCOC(=O)CNc1ccc(-c2ccccc2)c2c1CN(C(=O)OCC)CC2 | pIC50 | < 4.15
CN1CCc2c(-c3ccccc3)ccc(NC(=O)CCC(=O)O)c2C1 | pIC50 | < 4.15
CN1CCc2c(-c3ccccc3)ccc(Br)c2C1 | pIC50 | 4.15 to 4.30
CN1CCc2c(-c3ccccc3)ccc(NCCC(=O)O)c2C1 | pIC50 | < 4.15
C/C=C1/C(=O)Nc2c1cc(-c1ccccc1)c1c2CN(C)CC1 | pIC50 | < 4.15
CN1CCc2c(-c3ccccc3)cc3[nH]c(=O)[nH]c3c2C1 | pIC50 | < 4.15
CO/N=C1/C(=O)Nc2c1cc(-c1ccccc1OC)c1c2CN(C)CC1 | pIC50 | 4.52 to 4.70
CN1CCc2c(-c3cccc(C(F)(F)F)c3)cc3c(c2C1)NC(=O)/C3=N/O | pIC50 | < 4.15
CN1CCc2c(-c3ccccc3C(F)(F)F)cc3c(c2C1)NC(=O)/C3=N/O | pIC50 | > 4.70
CO/N=C1/C(=O)Nc2c1cc(-c1cc(F)ccc1OC)c1c2CN(C)CC1 | pIC50 | 4.52 to 4.70
CN1CCc2c(-c3ccccc3OC(F)(F)F)cc3c(c2C1)NC(=O)/C3=N/O | pIC50 | < 4.15
CN1CCc2c(-c3ccccc3)ccc(NC(=O)CC(=O)O)c2C1 | pIC50 | < 4.15
COCCOc1ccccc1-c1cc2c(c3c1CCN(C)C3)NC(=O)/C2=N/O | pIC50 | > 5.00
COc1ccc(C=O)cc1-c1cc2c(c3c1CCN(C)C3)NC(=O)/C2=N/O | pIC50 | < 4.15
C/C(=N\O)c1c2c(c(O)c3c1OCO3)CN(C)CC2 | pIC50 | < 4.15
CN1CCc2c(-c3ccccc3)cc3c(O)cc(=O)[nH]c3c2C1 | pIC50 | < 4.15
C#CN1C(=O)C(=NO)c2cc(-c3ccccc3)c3c(c21)CN(CC)CC3 | pIC50 | > 5.00
[H]/N=C(\N)N/N=C1/C(=O)Nc2c1cc(-c1ccccc1)c1c2CN(C)CC1 | pIC50 | 4.40 to 4.70
